# target-or-test-system: LNX1_1, Q8TBB1
# Sequence (Q8TBB1 261-371): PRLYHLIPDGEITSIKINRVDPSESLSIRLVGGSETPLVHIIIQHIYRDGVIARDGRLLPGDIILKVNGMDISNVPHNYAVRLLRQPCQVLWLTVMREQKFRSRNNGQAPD
# protocol-notes: holdup assay
# Design: key: below the threshold = too weak to quantify, mostly under pKd 3.1 to 4
# test-parameters: plain residues with an end cap or a label only (N-terminal biotin on a linker: ado-ado)
measured-quantity: pKd

- binder: "RQKEVRESKC [SCN8A, Q9UQD0]"
  measured-quantity: "pKd"
  val: "below the threshold"
- binder: "MHIQEKGFHV [EPHA6, Q9UF33]"
  measured-quantity: "pKd"
  val: "below the threshold"
- binder: "DFLSTFHIRI [CIB2, O75838]"
  measured-quantity: "pKd"
  val: "below the threshold"
- binder: "LPAVCYDIDI [PTTG2, Q9NZH5]"
  measured-quantity: "pKd"
  val: "below the threshold"
- binder: "QLSFNTDTLC [ABCA2, Q9BZC7]"
  measured-quantity: "pKd"
  val: "below the threshold"
- binder: "NVYGIESVKI [GRIA2, P42262]"
  measured-quantity: "pKd"
  val: 4.07
- binder: "SRSVVESDEL [MYPN, Q86TC9]"
  measured-quantity: "pKd"
  val: "below the threshold"
- binder: "TISFTQTSQF [SLC1A1, P43005]"
  measured-quantity: "pKd"
  val: "below the threshold"
- binder: "VKRNSKETVV [MARCHF3, Q86UD3]"
  measured-quantity: "pKd"
  val: "below the threshold"
